Consider the following variants and their measured normalized RNA/DNA level with ligand (log10) readings.
B1: library; a variant is named by its letters at N, in order (parent)
chain: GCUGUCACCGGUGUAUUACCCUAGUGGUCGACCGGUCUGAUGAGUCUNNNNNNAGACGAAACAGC

- Variants of: B1
- TEST NAME: normalized RNA/DNA level with ligand (relative to sTRSVctl = 100) (log10 (% of sTRSVctl)); ligand: hypoxanthine (xanthine aptamer); higher = less ribozyme self-cleavage, higher mRNA level
- SETTINGS: ligand concentration (+) RNA-Seq: 5 mM, HEK293T, reporter: mCherry (pCS4076), ligand present: yes
Simply state the number, no unit and no words.

Suppose we examine the variant GCUGUCACCGGUGUAUUACCCUAGUGGUCGACCGGUCUGAUGAGUCUACUCAGAGACGAAACAGC [ACUCAG] ; what normalized RNA/DNA level with ligand (log10) value has been reported?
1.89

Next up: GCUGUCACCGGUGUAUUACCCUAGUGGUCGACCGGUCUGAUGAGUCUGUCGUAAGACGAAACAGC [GUCGUA]
1.91

Next up: GCUGUCACCGGUGUAUUACCCUAGUGGUCGACCGGUCUGAUGAGUCUUCUGGAAGACGAAACAGC [UCUGGA]
1.85

Next up: GCUGUCACCGGUGUAUUACCCUAGUGGUCGACCGGUCUGAUGAGUCUGUUUCCAGACGAAACAGC [GUUUCC]
1.95

Next up: GCUGUCACCGGUGUAUUACCCUAGUGGUCGACCGGUCUGAUGAGUCUAAGUGAAGACGAAACAGC [AAGUGA]
1.81

Next up: GCUGUCACCGGUGUAUUACCCUAGUGGUCGACCGGUCUGAUGAGUCUAAAGAGAGACGAAACAGC [AAAGAG]
1.8

Next up: GCUGUCACCGGUGUAUUACCCUAGUGGUCGACCGGUCUGAUGAGUCUCUCAGGAGACGAAACAGC [CUCAGG]
1.95

Next up: GCUGUCACCGGUGUAUUACCCUAGUGGUCGACCGGUCUGAUGAGUCUUUGUGCAGACGAAACAGC [UUGUGC]
2.02

Next up: GCUGUCACCGGUGUAUUACCCUAGUGGUCGACCGGUCUGAUGAGUCUUUUGGAAGACGAAACAGC [UUUGGA]
1.93

Next up: GCUGUCACCGGUGUAUUACCCUAGUGGUCGACCGGUCUGAUGAGUCUGUGCUAAGACGAAACAGC [GUGCUA]
1.93

Next up: GCUGUCACCGGUGUAUUACCCUAGUGGUCGACCGGUCUGAUGAGUCUUACGCGAGACGAAACAGC [UACGCG]
1.89

Next up: GCUGUCACCGGUGUAUUACCCUAGUGGUCGACCGGUCUGAUGAGUCUGAAUUCAGACGAAACAGC [GAAUUC]
1.93
